System name: Beta-2 adrenergic receptor (Homo sapiens)
Sequence (P07550 whole entry): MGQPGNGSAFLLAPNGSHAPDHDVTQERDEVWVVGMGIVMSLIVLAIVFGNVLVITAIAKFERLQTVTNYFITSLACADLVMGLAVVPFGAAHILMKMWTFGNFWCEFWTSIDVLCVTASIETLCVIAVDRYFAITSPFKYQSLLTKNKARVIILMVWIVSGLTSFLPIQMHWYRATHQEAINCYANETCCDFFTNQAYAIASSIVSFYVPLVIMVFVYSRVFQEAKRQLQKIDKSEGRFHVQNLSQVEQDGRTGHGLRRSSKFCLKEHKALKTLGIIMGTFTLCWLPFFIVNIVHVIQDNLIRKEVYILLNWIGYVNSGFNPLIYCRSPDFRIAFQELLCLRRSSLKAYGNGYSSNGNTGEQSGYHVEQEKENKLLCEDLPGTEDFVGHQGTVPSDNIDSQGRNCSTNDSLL
Test protocol: Binding affinity towards Beta-2 adrenergic receptor in CHO cells expressing the cloned human receptor using 125I]iodocyanopindolol
Readings of pIC50 for the listed compounds
Interpret pIC50 as the negative base-10 log of the concentration measured in mol/L.

# annotated cases, reported pIC50 shown
> print(dat)
                           molecular.string                               system.name  value.reported
1  CCCCCCn1c(C)cn(-c2ccc(S(=O)(=O)Nc3ccc(CCNC[C@H](O)c4cccnc4)cc3)cc2)c1=O  Beta-2 adrenergic receptor (Homo sapiens)            5.15
2  CCCCCCCCn1ncn(-c2ccc(S(=O)(=O)Nc3ccc(CCNC[C@H](O)c4cccnc4)cc3)cc2)c1=O  Beta-2 adrenergic receptor (Homo sapiens)            5.70

Query: GET /values?readout=pIC50&item= `CCCCCCCCn1c(C)cn(-c2ccc(S(=O)(=O)Nc3ccc(CCNC[C@H](O)c4cccnc4)cc3)cc2)c1=O`
Result: 5.15

Query: GET /values?readout=pIC50&item= `CCCCCCN1C(=O)CN(c2ccc(S(=O)(=O)Nc3ccc(CCNC[C@H](O)c4cccnc4)cc3)cc2)C1=O`
Result: 5.70
